Hello, the source for this data is paper PMC9266368, in case you need it.

target: membrane PD-L1 (mPD-L1) (Homo sapiens); construct: endogenous in cells; host or cells: HT-29, A-549, MCF-7; test: Membrane PD-L1 relative quantification by flow cytometry; type: cell-based; conditions: MCF-7; 24 h; 100 or 10 μM (Table 7); percentage referred to DMSO control
Sequence (Q9NZQ7 19-290): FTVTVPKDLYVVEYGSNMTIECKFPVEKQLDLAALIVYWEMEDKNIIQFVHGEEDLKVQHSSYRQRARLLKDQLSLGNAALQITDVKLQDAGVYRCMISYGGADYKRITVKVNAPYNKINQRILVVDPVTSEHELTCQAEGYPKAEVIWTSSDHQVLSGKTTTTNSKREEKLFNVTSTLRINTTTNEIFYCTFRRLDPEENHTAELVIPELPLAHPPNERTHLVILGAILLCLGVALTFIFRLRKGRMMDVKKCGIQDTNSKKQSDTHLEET
mPD-L1 relative detection, MCF-7 listing for selected molecules.
All answers are understood in %, so give the number only.

Worked cases, mPD-L1 relative detection, MCF-7 given:
MOLECULE: Cc1ccccc1Cn1cc(-c2ccc(N)cc2)nn1
TARGET_OR_TEST_SYSTEM: membrane PD-L1 (mPD-L1) (Homo sapiens)
RECORDED_METRIC: mPD-L1 relative detection, MCF-7
UNIT_TEXT: %
VAL: 84
//
MOLECULE: Cc1ccc(Cn2cc(-c3ccc(N)cc3)nn2)cc1
TARGET_OR_TEST_SYSTEM: membrane PD-L1 (mPD-L1) (Homo sapiens)
RECORDED_METRIC: mPD-L1 relative detection, MCF-7
UNIT_TEXT: %
VAL: 89
//
MOLECULE: Nc1ccc(-c2cn(Cc3ccccc3Cl)nn2)cc1
TARGET_OR_TEST_SYSTEM: membrane PD-L1 (mPD-L1) (Homo sapiens)
RECORDED_METRIC: mPD-L1 relative detection, MCF-7
UNIT_TEXT: %
VAL: 83
//
MOLECULE: Nc1ccc(-c2cn(Cc3ccc(Cl)cc3)nn2)cc1
TARGET_OR_TEST_SYSTEM: membrane PD-L1 (mPD-L1) (Homo sapiens)
RECORDED_METRIC: mPD-L1 relative detection, MCF-7
UNIT_TEXT: %
VAL: 86
//
MOLECULE: Nc1ccc(-c2cn(Cc3cccc(Br)c3)nn2)cc1
TARGET_OR_TEST_SYSTEM: membrane PD-L1 (mPD-L1) (Homo sapiens)
RECORDED_METRIC: mPD-L1 relative detection, MCF-7
UNIT_TEXT: %
VAL: 87

The molecule listed as COc1ccccc1Cn1cc(-c2ccc(N)cc2)nn1 shows mPD-L1 relative detection, MCF-7 equal to 81

The molecule listed as Nc1ccc(-c2cn(Cc3cccc(Cl)c3)nn2)cc1 has a reported mPD-L1 relative detection, MCF-7 of 90

* * *

Form field: IC50 (one value per entry).
tested on: HT-29 (colon adenocarcinoma); assay: MTT cell viability assay, HT-29; assay type: cell-based; conditions: Homo sapiens, HT-29, 48 h, 2 days incubation, average ±SD of three experiments

COMPOUND: COc1cccc(Cn2cc(-c3ccc(N)cc3)nn2)c1 [Compound 19]
IC50: > 100 µM
//
COMPOUND: COc1ccc(Cn2cc(-c3ccc(N)cc3)nn2)cc1 [Compound 20]
IC50: > 100 µM

According to the records, this compound Nc1ccc(-c2cn(Cc3ccc(Cl)cc3)nn2)cc1 [Compound 23] displays IC50 of > 100 µM

* * *

biological target: membrane PD-L1 (mPD-L1) (Homo sapiens); construct: endogenous in cells; host or cells: HT-29, A-549, MCF-7; assay: Membrane PD-L1 relative quantification by flow cytometry; type: cell-based; settings: MCF-7; 24 h; 100 or 10 μM (Table 7); percentage referred to DMSO control
RECORDED_METRIC: mPD-L1 relative detection, MCF-7 (%)
# output: bare number, implied unit %

Below, each entry is followed by its recorded mPD-L1 relative detection, MCF-7 result.
COMPOUND: Nc1ccc(-c2cn(Cc3ccccc3Br)nn2)cc1
TARGET_OR_TEST_SYSTEM: membrane PD-L1 (mPD-L1) (Homo sapiens)
VAL: 91
--
COMPOUND: Nc1ccc(-c2cn(Cc3ccc(Br)cc3)nn2)cc1
TARGET_OR_TEST_SYSTEM: membrane PD-L1 (mPD-L1) (Homo sapiens)
VAL: 84
--
COMPOUND: Cc1c(COc2ccc(CN3CCCCC3C(=O)O)cc2Br)cccc1-c1ccccc1 (stereo not shown) [BMS-8, reference compound]
TARGET_OR_TEST_SYSTEM: membrane PD-L1 (mPD-L1) (Homo sapiens)
VAL: 90
--
COMPOUND: COc1ccc(Cn2cc(-c3ccc(N)cc3)nn2)cc1
TARGET_OR_TEST_SYSTEM: membrane PD-L1 (mPD-L1) (Homo sapiens)
VAL: 91
--
COMPOUND: COc1cccc(Cn2cc(-c3ccc(N)cc3)nn2)c1
TARGET_OR_TEST_SYSTEM: membrane PD-L1 (mPD-L1) (Homo sapiens)
VAL: 96

Turning now to a further record.
Lab note: Nc1ccc(-c2cn(Cc3ccccc3)nn2)cc1 gave mPD-L1 relative detection, MCF-7 of 94
